# log10 of Kd values compiled below
biological target: T1, human VISTA (human, UniProt Q9H7M9 33-194, limits assumed); assay: method not stated (Table 1, column Kd, M)
T1 construct: The ELISA text says only recombinant VISTA; also called recombinant VISTA
measurementKind: log10 of Kd (log10 of the value in nM)

>>> experimentalresult("INX912 | VSTB84 (antibody, V domains shown) VH: QVQLVQSGAEVKKPGASVKVSCKASGYTFTSYWMHWVRQAPGQGLEWMGYINPSTGYPGYNQKFKDRVTMTRDTSTSTVYMELSSLRSEDTAVYYCARSYYDYDGGAWFAYWGQGTTVTVSS VL: DIVMTQTPLSLSVTPGQPASISCRASESVEYYGTSLMQWYLQKPGQPPQLLIYAASNVESGVPDRFSGSGSGTDFTLKISRVEAEDVGVYYCQQSRKVPSTFGQGTKLEIKR")
0.31
>>> experimentalresult("VSTB51 (antibody, V domains shown) VH: EVQLVESGGGLVQPGGSLRLSCAASGFTFSSYTMSWVRQAPGKGLEWVATISNSGSYTYYLDSVKGRFTISRDNAKNSLYLQMNSLRAEDTAVYYCARDTVLSPFDYWGQGTTVTVSS VL: EIVLTQSPDFQSVTPKEKVTITCSATSSISYMHWYQQKPDQSPKLLIKDTSELASGVPSRFSGSGSGTDFTLTINSLEAEDAATYYCHQRSSFTFGQGTKLEIKR")
-0.98
>>> experimentalresult("INX918 | VSTB113 (antibody, V domains shown) VH: QVQLVQSGAEVKKPGSSVKVSCKASGGTFSSYAISWVRQAPGQGLEWMGGIIPIFGTANYAQKFQGRVTITADESTSTAYMELSSLRSEDTAVYYCARHSIGWVAELDYWGQGTLVTVSS VL: DIQMTQSPSSLSASVGDRVTITCRASQSIATDLNWYQQKPGKAPKLLIYAASSLQSGVPSRFSGSGSGTDFTLTISSLQPEDFATYYCQQAHWYPLTFGQGTKVEIKR")
-1.36
>>> experimentalresult("INX908 | VSTB92 (antibody, V domains shown, INX name = the VSTB variable regions with human IgG2 constant regions; also called INX908 parental) VH: QVQLVQSGAEVKKPGASVKVSCKASGYTFANYLIGWVRQAPGQRLEWMGDIYPGGGFISYNEKFKGRVTITRDTSASTAYMELSSLRSEDTAVYYCARRFDYGGYFFDYWGQGTLVTVSS VL: DIVMTQSPLSLPVTPGEPASISCRSSQSIVHSNGNIYLEWYLQKPGQSPQLLIYKVSNRFSGVPDRFSGSGSGTDFTLKISRVEAEDVGVYYCFQGSHVPWTFGQGTKLEIK")
-1.03
>>> experimentalresult("VSTB100 (antibody, V domains shown) VH: EVQLVQSGAEVKKPGESLKISCKGSGYSFTSYWIGWVRQMPGKGLEWMGIIYPGDSDTRYSPSFQGQVTISADKSISTAYLQWSSLKASDTAMYYCARDVSSFYGYSPMFDYWGQGTLVTVSS VL: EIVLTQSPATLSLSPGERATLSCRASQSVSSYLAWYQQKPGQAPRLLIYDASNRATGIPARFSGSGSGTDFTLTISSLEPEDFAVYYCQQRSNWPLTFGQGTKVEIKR")
0.17
